// data source = patent US10221182B2

List of hERG @ 10 μM values.
- test_system: hERG channel (Homo sapiens (Human))
- Sequence (Q12809 whole entry): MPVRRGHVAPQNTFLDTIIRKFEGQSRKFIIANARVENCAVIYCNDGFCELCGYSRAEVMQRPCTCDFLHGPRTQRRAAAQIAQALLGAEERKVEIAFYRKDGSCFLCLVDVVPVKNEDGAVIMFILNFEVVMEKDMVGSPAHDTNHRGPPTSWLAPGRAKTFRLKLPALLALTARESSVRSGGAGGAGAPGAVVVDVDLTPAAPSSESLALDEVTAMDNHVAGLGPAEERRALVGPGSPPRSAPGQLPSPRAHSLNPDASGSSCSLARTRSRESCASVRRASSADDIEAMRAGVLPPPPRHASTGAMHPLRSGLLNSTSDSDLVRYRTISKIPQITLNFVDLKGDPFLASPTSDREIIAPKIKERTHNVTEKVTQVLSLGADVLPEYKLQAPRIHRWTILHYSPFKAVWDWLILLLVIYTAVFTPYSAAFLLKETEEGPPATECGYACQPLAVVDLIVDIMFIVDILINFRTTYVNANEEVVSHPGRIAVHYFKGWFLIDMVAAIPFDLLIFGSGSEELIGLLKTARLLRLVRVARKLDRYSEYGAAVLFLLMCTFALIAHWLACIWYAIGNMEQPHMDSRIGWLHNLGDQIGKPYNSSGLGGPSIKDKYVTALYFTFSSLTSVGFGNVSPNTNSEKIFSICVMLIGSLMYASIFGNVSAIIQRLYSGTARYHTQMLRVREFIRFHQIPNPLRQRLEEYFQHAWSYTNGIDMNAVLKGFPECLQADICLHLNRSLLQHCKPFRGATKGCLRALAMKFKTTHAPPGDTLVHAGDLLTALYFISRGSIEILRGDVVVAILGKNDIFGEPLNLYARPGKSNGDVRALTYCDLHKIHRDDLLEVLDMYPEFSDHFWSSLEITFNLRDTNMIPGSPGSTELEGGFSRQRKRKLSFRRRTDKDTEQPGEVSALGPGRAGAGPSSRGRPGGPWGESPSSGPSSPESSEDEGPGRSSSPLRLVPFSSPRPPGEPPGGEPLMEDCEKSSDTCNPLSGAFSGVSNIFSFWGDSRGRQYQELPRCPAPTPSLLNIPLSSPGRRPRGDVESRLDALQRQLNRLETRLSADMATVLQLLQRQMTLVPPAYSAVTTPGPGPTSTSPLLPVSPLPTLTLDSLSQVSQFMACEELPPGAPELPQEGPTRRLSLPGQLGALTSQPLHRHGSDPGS
- assay_notes: hERG channel inhibition, whole cell patch clamp in HEK293 cells
- condition_notes: inhibition at 10 μM
Output spec: scalar in %, unitless text.

compound	assay_readout	unit_label	meas_value
FCc1ccc(CCN2CCC(Nc3ncnc4[nH]ncc34)C(F)(F)C2)cc1 (single isomer, unassigned) [E1-1.7]	hERG @ 10 μM	%	36
FC1(F)CN(CCc2ccc(Cl)cc2)CCC1Nc1ncnc2[nH]ncc12 (single isomer, unassigned) [E2-1.3]	hERG @ 10 μM	%	64
FC(F)c1ccc(CCN2CCC(Nc3ncnc4[nH]ncc34)C(F)(F)C2)cc1 (single isomer, unassigned) [E1-1.6]	hERG @ 10 μM	%	63
FC(F)(F)c1cccc(CCN2CCC(Nc3ncnc4[nH]ncc34)C(F)(F)C2)c1 (racemic)	hERG @ 10 μM	%	56

Enquiry: Item FC(F)c1ccc(CCN2CCC(Nc3ncnc4[nH]ncc34)C(F)(F)C2)cc1 (single isomer, unassigned) [E2-1.6] : provide hERG @ 10 μM
Return: 70

Enquiry: Consider the compound FC1(F)CN(CCc2ccc(Cl)cc2)CCC1Nc1ncnc2[nH]ncc12 (single isomer, unassigned) [E1-1.3] and give its recorded hERG @ 10 μM.
Return: 58

Enquiry: Indicate the recorded hERG @ 10 μM value for this compound: FC(F)Oc1ccc(CCN2CCC(Nc3ncnc4[nH]ncc34)C(F)(F)C2)cc1 (single isomer, unassigned) [E1-1.12]
Return: 79

Enquiry: Identify hERG @ 10 μM associated with the compound FCc1ccc(CCN2CCC(Nc3ncnc4[nH]ncc34)C(F)(F)C2)cc1 (single isomer, unassigned) [E2-1.7]
Return: 49
